- System: human breast cancer cell line T-47D
- experiment: Caspase cascade activation (DEVD-R110 fluorogenic substrate) in T-47D cells
- Format: cell-based
- condition-details: Homo sapiens, T47D, 24 h, T47D cells, 24 h; read-out: Caspase activation Potency EC50 T47D (24 h)
pEC50: −log10 of the molar value. Counter-ions that a name gives are not always drawn.
In this section, each of the compounds is paired with its reported pEC50.

For orientation, consider the following solved cases.
| compound | study-system | experimental-result |
| --- | --- | --- |
| COc1ccc(OC)c(Nc2nc(C)nc3sccc23)c1 [Example 3] | human breast cancer cell line T-47D | 6.92 |
| COc1ccc(OC)c(Nc2nc(C)nc3sc(C)c(C)c23)c1 [Example 29, hydrochloride] | human breast cancer cell line T-47D | < 5.00 |
| COc1ccc(Oc2ccccc2)cc1Nc1ncnc2ccsc12 [Example 38] | human breast cancer cell line T-47D | < 5.00 |
| COc1ccc(OC)c(Nc2ncnc3sc(C)c(C)c23)c1 [Example 34] | human breast cancer cell line T-47D | < 5.00 |

Input line: Note pEC50 for the compound shown: COc1ccc([N+](=O)[O-])c(Nc2ncnc3ccsc23)c1 [Example 35]
Output line: < 5.00

----------
In this section, each of the molecules is paired with its reported pEC50.
- Tested on: human breast cancer cell line T-47D
- experiment: Caspase cascade activation (DEVD-R110 fluorogenic substrate) in T-47D cells
- Format: cell-based
- condition-details: Homo sapiens, T47D, 24 h, T47D cells, 24 h; read-out: Caspase activation Potency EC50 T47D (24 h)
pEC50: −log10 of the molar value.

| molecule | pEC50 |
| --- | --- |
| COC(=O)c1cc(Nc2ncnc3ccsc23)cc(C(=O)OC)c1 [Example 58] | < 5.00 |
| COc1ccc(C(=O)O)cc1Nc1ncnc2ccsc12 [Example 41] | < 5.00 |

Could you now consider this next molecule?
Input line: Note pEC50 for the molecule shown: COc1cccc(C)c1Nc1ncnc2ccsc12 [Example 30]
Output line: < 5.00

----------
In this section, each of the compounds is paired with its reported pEC50.
- Tested on: human colon carcinoma cell line HCT116
- experiment: Caspase cascade activation in HCT116 cells
- Format: cell-based
- condition-details: Homo sapiens, HCT-116, 48 h, read-out: Caspase activation Potency EC50 HCT116 (48 h)
pEC50: −log10 of the molar value. Counter-ions that a name gives are not always drawn.

For orientation, consider the following solved cases.
| compound | experimental-result |
| --- | --- |
| COc1ccc(C(C)(C)C)cc1Nc1ncnc2ccsc12 | < 5.00 |
| COc1ccc(OC)c(Nc2ncnc3sccc23)c1 [Example 5, hydrochloride] | < 5.00 |

Could you now consider this next compound?
Input line: Note pEC50 for the compound shown: COc1cc(Nc2ncnc3sccc23)cc(OC)c1
Output line: < 5.00

----------
- Tested on: human colon carcinoma cell line HCT116
- experiment: Caspase cascade activation in HCT116 cells
- Format: cell-based
- condition-details: Homo sapiens, HCT-116, 48 h, read-out: Caspase activation Potency EC50 HCT116 (48 h)
pEC50: −log10 of the molar value. Counter-ions that a name gives are not always drawn.
quantity: pEC50

For orientation, consider the following solved cases.
| molecule | experimental-result |
| --- | --- |
| COc1cccc(Nc2ncnc3ccsc23)c1 [Example 11, hydrochloride] | < 5.00 |
| COc1ccc(OC)c(Nc2nc(SC)nc3ccsc23)c1 | 6.50 |
| COc1ccc(Oc2ccccc2)cc1Nc1ncnc2ccsc12 | < 5.00 |

Could you now consider this next molecule?
Input line: Note pEC50 for the molecule shown: COc1cc(Nc2nc(C)nc3ccsc23)cc(-n2cnnn2)c1
Output line: 6.21

----------
- Tested on: human colon carcinoma cell line HCT116
- experiment: Caspase cascade activation in HCT116 cells
- Assay type: cell-based
- condition-details: Homo sapiens, HCT-116, 48 h, read-out: Caspase activation Potency EC50 HCT116 (48 h)
Counter-ions that a name gives are not always drawn.
quantity: EC50

Input line: Note EC50 for the molecule shown: COc1cc(Nc2nc(C)nc3cc(Br)sc23)cc(OC)c1
Output line: 0.082 µM

Input line: Note EC50 for the molecule shown: CS(=O)(=O)c1cc(Nc2ncnc3ccsc23)cc(S(C)(=O)=O)c1
Output line: > 10 µM

Input line: Note EC50 for the molecule shown: c1nc(Nc2ccc3[nH]ccc3c2)c2sccc2n1
Output line: > 10 µM

Input line: Note EC50 for the molecule shown: COc1cccc(C)c1Nc1ncnc2ccsc12
Output line: > 10 µM

Input line: Note EC50 for the molecule shown: COc1cccc(Nc2ncnc3ccsc23)c1OC [Example 9, hydrochloride]
Output line: > 10 µM

Input line: Note EC50 for the molecule shown: COc1ccc(OC)c(Nc2nc(C)nc3scc(C)c23)c1 [Example 7, hydrochloride]
Output line: > 10 µM
